Target: pooled human IgG (human IgG1, 2, 3 and 4)
Task for the reader: assign each of the following proteins its reported Enzyme Activity Endpoint Assay: IgG.
Report the figure along with its unit, number first.

// below: answered proteins
{"columns": ["protein", "result"],
 "data": [
  ["PRT-487 (protein) MVTSVWTKGVTPPTDFIKGEDVFHAPYKAGQGWYDITKTFNGKDNLLCGAATAGNMLHWWFDQNKDQIERYLKEHPEKQKIIFNNQELFDLKAAIDTKDSQTDSKLFEYFKEKAFPYLSTKHLGVFPDHVLDMFINGYRLSLTNHGPTPVKEGSKDKRGGIFDAVFTRGVQSKLLTSRHDLKNKTLKEISDLIKQELTEGKALGLSHTYANVRINHVINLWGADFDSEGNLKAIYVTDSDTNASIGMKKYFVGVNSAGKVAISAKEIKEDNIGAQVLGLFTLSTGQDIWNQTNLEHHHHHH", "0 ng/µL"],
  ["PRT-559 (protein) MANQEIRYSEETPKTITSIWTKGVTPPTDFIKTEDVLHAPYVANQGWYDITKTFNGKDDLLCGAATAGNMLHWWFDQNKEEIENYLKKHPEKQKINFNGEQMFDVKEAIDTKDSQTDSALFEYFKDKAFPYLSTKHLGVFPDHVIDMFINGYRLSLTNHGPTPVKDGTKDPRGGIFDAVFTRGDQTKLLTERHDFKEKTLNEISDLIKQELTEGKALGLSHTYANVRINHVINLWGADFNSEGNLEAIYVTDSDSNASIGMKKYYVGVNAAGKVAISAKEIEDDNIGAQVLGLFTLSTGQDIWEQTNLEHHHHHH", "0 ng/µL"]
]}

Please report Enzyme Activity Endpoint Assay: IgG for every entry that follows.
1. PRT-481 (protein) MVTSVWTKGVTPPTDFIYGEDVLHAPYKAGQGWYDITKAFDGGDDLLCGAATAGNMLHWWFDQNKEQIENYLKKHPEKQKINFNGEQMFDVKEAIDTKDSQTNSELFNYFKEKAFPYLSTKHLGVFPDHVIDMFINGYRLSLTNHGPTPVKRQEKDPRGGIFDAVFGRGDQTKLLTNRHDLKNKTLKEISDLIKQELTEGKALGISHTYANVRINHVINLWGADFDAEGNLEAIYVTDSDSNASIGMKKYFVGVNSNGKVAISAKEIEEDNIGAQVLGLFTLSTGQKIWNKTNLEHHHHHH
2. PRT-600 (protein) MANQEIRYSEETPSTITSVWTKGVTPPTDFIQNEDVLHAPYIANQGWYDITKTFNGKDDLLCGAATAGNMLHWWFDQNKEQIENYLKKHPEKQKINFNGEQMFDVKEAIDTKDSQTDSALFEYFKDKAFPYLSTKHLGVFPDHVIDMFINGYRLSLTNHGPTPVKRGTKDPRGGIFDAVFTRGDQSKLLTSRHDFKEKTLNEISDLIKQELTEGKALGLSHTYANVRINHVINLWGADFNAEGNLEAIYVTDSDSNASIGMKKYYVGVNSAGKVAISAKEIEGDNIGAQVLGLFTLSTGQDSWNQTNLEHHHHHH
3. PRT-580 (protein) MANQEIRYSEETPKTITSVWTKGVTPPTDFIKNEDVFHAPYVANQGWYDITKTFNGKDDLLCGAATAGNMLHWWFDQNKEEIERYLKKHPEKQKINFNGEQMFDVKEAIDTKDSQTNSKLFEYFKDKAFPYLSTKHLGVFPDHVIDMFINGYRLSLTNHGPTPVKRGTKDPRGGIFDAVFTRGDQSKLLTSRHDFKEKTLKEISDLIKQELQEGKALGLSHTYANVRINHVINLWGADFDSEGNLEAIYVTDSDSNASIGMKKYYVGVNSAGKVAISAKEIEDDNIGAQVLGLFTLSTGKDIWEQTNLEHHHHHH
4. PRT-598 (protein) MANQEIRYSEETPSTITSVWTKGVTPPTDFIQNEDVLHAPYIANQGWYDITKTFNGKDDLLCGAATAGNMLHWWFDQNKEQIENYLKKHPEKQKINFNGEQMFDVKEAIDTKDSQTDSALFEYFKDKAFPYLSTKHLGVFPDHVIDMFINGYRLSLTNHGPTPVKRGTKDPRGGIFDAVFTRGDQSKLLTSRHDFKEKTLNEISDLIKQELTEGKALGLSHTYANVRINHVINLWGADFNAEGNLEAIYVTDSDSNASIGMKKYFVGVNSAGKVAISAKEIEGDNIGAQVLGLFTLSTGQDIWNQTNLEHHHHHH
5. PRT-442 (protein) MSQTEDSESLQRLRDIEDFQAEKKKQNVVYTKWLDGVDVKDHDFRKIVDGNIAYYATPLLNGRGFYDINKDFNRDNDKCAAAVAANMFHYWLDRNRDNVDRFLRQNPEKHGIIELPDGQLKLSDFLNTYESDDGYRDKSKLFDFISNNFNGPVWTDKLLDNYINGYAYNYKYGRTIEDPTKNTSKINFFKEVFNEKILTNNHSIRNQNEFSVLLSEALYTGKAIGLSYGPAGLRHSLGHIISVWGADLDADGNVVAIYVTDSDDKKLTIGDERVGLKRYKISTDDEGRLRLTAYEETHNTGGQIRGLWTLDTGKQAWADYFDKTEQTGTDQAEQ
6. PRT-245 (protein) MVTSVWTKGVTPPANFTQGEDVFHAPYVANQGWYDITKLFNGKDDLLCGAATAGNMLHWWFDQNKDQIKRYLEEHPEKQKINFNGEQMFDVKEAIDTKNHQLDSKLFEYFLEKAFPNLSTKHLGVFPDHVIDMFINGYRLSLLNHGPTPVKEGSKDPRGGIFDAVFTRGDQSKLLTSRHDFKEKNLKEISDLIKKELTEGKALGLSHTYANGRINHVINLWGADFDSNGNLKAIAVTDSDSNASIGMKKYFVGVNSSGKVAISAKEIKEDNIGAQVLGLFTLSTGQDSWNQTN

A)
1. 65 ng/µL
2. 0 ng/µL
3. 0 ng/µL
4. 0 ng/µL
5. 680 ng/µL
6. 46 ng/µL
